Target: rSARS2 RBD aa319-541, N439K, C-His (SARS-CoV-2, UniProt P0DTC2 319-541)
Assay: flow cytometry, blocking of binding to hACE-2 cells
quantity: percent blocking (%)
Write the answer as a number in %, unit excluded.

Request: For the binder 1035414 (antibody, V domains shown) VH: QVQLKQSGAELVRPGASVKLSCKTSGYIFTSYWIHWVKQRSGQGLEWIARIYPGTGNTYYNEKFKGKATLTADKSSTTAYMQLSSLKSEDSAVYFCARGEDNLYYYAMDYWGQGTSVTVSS VL: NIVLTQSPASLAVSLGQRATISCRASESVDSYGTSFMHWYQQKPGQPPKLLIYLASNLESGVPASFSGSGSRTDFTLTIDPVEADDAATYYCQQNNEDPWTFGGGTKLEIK , what percent blocking is on record?
Response: 43

Request: For the binder 1035752 (antibody, V domains shown) VH: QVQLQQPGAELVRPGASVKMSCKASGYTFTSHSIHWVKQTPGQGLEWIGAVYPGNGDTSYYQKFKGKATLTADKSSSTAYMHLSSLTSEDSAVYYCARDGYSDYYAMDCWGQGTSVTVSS VL: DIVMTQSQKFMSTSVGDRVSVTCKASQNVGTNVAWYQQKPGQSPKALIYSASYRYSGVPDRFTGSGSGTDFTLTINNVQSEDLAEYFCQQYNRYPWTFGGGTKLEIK , what percent blocking is on record?
Response: 53

Request: For the binder 1035753 (antibody, V domains shown) VH: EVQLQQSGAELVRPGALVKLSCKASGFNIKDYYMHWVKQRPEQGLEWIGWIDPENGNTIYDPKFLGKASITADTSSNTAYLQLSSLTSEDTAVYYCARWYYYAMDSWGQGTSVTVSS VL: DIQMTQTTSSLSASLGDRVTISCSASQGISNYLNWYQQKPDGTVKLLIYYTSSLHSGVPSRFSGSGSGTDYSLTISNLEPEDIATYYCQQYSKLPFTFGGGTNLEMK , what percent blocking is on record?
Response: 96.2

Sourced from patent US20230408517A1
